Test system: CHRC5 cell line
assayName: Reversal of sensitivity of multidrug resistant chinese hamster ovary cell line CHRC/5 expressed as concentration that restores 50% of cytotoxic activity of 5 ug/mL toward doxorubicin
Assay type: functional, cell-based
conditionSet: Cricetulus griseus, read-out: EC50
Entries whose EC50 is below 60 nM take fulfilled; entries at or above 60 nM take not fulfilled.

In: API: query returns whether the molecule falls strictly under 60 nM in EC50. Query: `COc1ccc(CN(C)CCCOc2ccc(NC(=O)c3cccc4c(O)c5cccc(F)c5nc34)c(C)c2)cc1OC`
Out: not fulfilled

Further cases:
In: API: query returns whether the molecule falls strictly under 60 nM in EC50. Query: `COc1ccc(CN(C)CCCCc2ccc(NC(=O)c3cccc4c(O)c5ccccc5nc34)cc2)cc1OC`
Out: fulfilled

In: API: query returns whether the molecule falls strictly under 60 nM in EC50. Query: `CN(CCOc1ccc(NC(=O)c2cccc3c(=O)c4ccccc4[nH]c23)cc1)Cc1ccc(C(F)(F)F)cc1`
Out: not fulfilled

In: API: query returns whether the molecule falls strictly under 60 nM in EC50. Query: `CN(CCCCCCCCNC(=O)c1cccc2c(O)c3ccccc3nc12)Cc1ccccc1`
Out: not fulfilled

In: API: query returns whether the molecule falls strictly under 60 nM in EC50. Query: `COc1cc2c(cc1OC)CN(CCCc1cccc(NC(=O)c3cccc4c(O)c5cccc(OC)c5nc34)c1)CC2`
Out: fulfilled

In: API: query returns whether the molecule falls strictly under 60 nM in EC50. Query: `COc1ccc(CN(C)CCc2ccccc2NC(=O)c2cccc3c(O)c4cccc(OC)c4nc23)cc1OC`
Out: not fulfilled

In: API: query returns whether the molecule falls strictly under 60 nM in EC50. Query: `COc1cc2c(cc1OC)CN(CCCOc1ccc(NC(=O)c3cccc4c(=O)c5ccccc5[nH]c34)cc1)CC2`
Out: fulfilled

In: API: query returns whether the molecule falls strictly under 60 nM in EC50. Query: `COc1ccc(CN(C)CCCCCc2ccc(NC(=O)c3cccc4c(O)c5ccccc5nc34)cc2)cc1OC`
Out: not fulfilled

====

Tested on: CHRC5 cell line
assayName: Reversal of sensitivity of multidrug resistant chinese hamster ovary cell line CHRC/5 expressed as concentration that restores 50% of cytotoxic activity of 5 ug/mL toward doxorubicin
Assay type: functional, cell-based
conditionSet: Cricetulus griseus, read-out: EC50
pEC50: −log10 of the molar value.
Outcome label depends on pEC50 relative to 7: at/above gives MET, below gives NOT MET.

In: Please check the record `COc1ccc(CN(C)CCc2ccc(NC(=O)c3cccc4c(O)c5cccc(F)c5nc34)cc2)cc1OC` and state if its pEC50 is at or above 7.
Out: MET

Kindly consider the entry below.
In: Please check the record `CSc1ccc(CN(C)CCOc2ccc(NC(=O)c3cccc4c(O)c5ccccc5nc34)cc2)cc1` and state if its pEC50 is at or above 7.
Out: NOT MET

====

Test system: CHRC5 cell line
assayName: Reversal of sensitivity of multidrug resistant chinese hamster ovary cell line CHRC/5 expressed as concentration that restores 50% of cytotoxic activity of 5 ug/mL toward doxorubicin
Assay type: functional, cell-based
conditionSet: Cricetulus griseus, read-out: EC50
Entries whose EC50 is below 200 nM take y; entries at or above 200 nM take n.

The examples below pair each entry with its known result.
In: API: query returns whether the compound falls strictly under 200 nM in EC50. Query: `COc1cc(OC)c2nc3c(C(=O)Nc4ccc(CCN(C)Cc5ccc(OC)c(OC)c5)cc4)cccc3c(O)c2c1`
Out: y

In: API: query returns whether the compound falls strictly under 200 nM in EC50. Query: `COc1cc2c(cc1OC)CN(CCc1ccc(NC(=O)c3cccc4c(=O)c5cccc(OC)c5[nH]c34)cc1)CC2`
Out: y

In: API: query returns whether the compound falls strictly under 200 nM in EC50. Query: `CCN(CCOc1ccc(NC(=O)c2cccc3c(=O)c4ccccc4[nH]c23)cc1)Cc1ccccc1`
Out: y

In: API: query returns whether the compound falls strictly under 200 nM in EC50. Query: `COc1ccc(CN(C)CCOc2ccc(NC(=O)c3cccc4c(O)c5cccc(OC)c5nc34)c(C)c2)cc1OC`
Out: n

In: API: query returns whether the compound falls strictly under 200 nM in EC50. Query: `COc1ccc(CN(C)CCc2ccc(NC(=O)c3cccc4c(O)c5cccc(C)c5nc34)cc2)cc1OC`
Out: y

In: API: query returns whether the compound falls strictly under 200 nM in EC50. Query: `COc1ccc(CN(C)Cc2ccc(NC(=O)c3cccc4c(O)c5ccccc5nc34)cc2)cc1OC`
Out: n

Further cases:
In: API: query returns whether the compound falls strictly under 200 nM in EC50. Query: `COc1ccc(CCN(C)CCOc2ccc(NC(=O)c3cccc4c3Nc3ccccc3S4)cc2)cc1OC`
Out: y

In: API: query returns whether the compound falls strictly under 200 nM in EC50. Query: `COc1ccc(CN(C)CCCc2ccccc2NC(=O)c2cccc3c(O)c4cccc(OC)c4nc23)cc1OC`
Out: n
